Test system: SKMEL-28
TEST_SUMMARY: MTT colorimetric assay, SKMEL-28
Type: cell-based
CONDITION_SUMMARY: Homo sapiens, SK-MEL-28; 72 h treatment; mean ± SEM; resistant to apoptosis; read-out: IC50 determined by MTT assays, SKMEL-28
Excerpt: Cancer cell lines were obtained from either the European Collection of Cell Cultures (ECACC; Salisbury, UK) or the American Type Culture Collection (ATCC; Manassas, VA). The two glioma cell lines were the U373 (ECACC code 08061901) and Hs683 (ATCC HTB-138) cell lines. The carcinoma cell lines were the A549 non-small cell carcinoma cell line (ATCC code CCL 185) and the MCF-7 mammary breast carcinoma cell line (ATCC code HTB-22). […]
Please respond with reported IC50 for every item in the list.
Numeric only. Scale: µM

Query string: # lookup: IC50 of CC1(C=CCOCc2ccc3ccc4cccc5ccc2c3c45)C=C2C(=O)C3(O)OC(=O)C4(CCCC(C)(C)C34)C2(O)CC1 (centres unmarked) [Compound 25]
Result string: 3.32

Query string: Dear colleague, I am looking for the recorded IC50 of the following compound: CC1(C=CCCCc2ccc3ccc4cccc5ccc2c3c45)C=C2C(O)C3(O)OC(=O)C4(CCCC(C)(C)C34)C2(O)CC1 (centres unmarked) [Compound 16]
Result string: 7.24

Query string: Record request: IC50 value, item C#CCCCC(=O)OC12OC(=O)C3(CCCC(C)(C)C13)C1(O)CCC(C)(C=C)C=C1C2=O (centres unmarked) [Compound 3]
Result string: 2.56

Query string: What does the record list as IC50 for CC1(C=CCCCc2ccc3ccc4cccc5ccc2c3c45)C=C2C(=O)C3(O)OC(=O)C4(CCCC(C)(C)C34)C2(O)CC1 (centres unmarked) [Compound 13] ?
Result string: 0.31

* * *

Test system: MCF7
TEST_SUMMARY: MTT colorimetric assay, MCF7
Assay type: cell-based
CONDITION_SUMMARY: Homo sapiens, 72 h treatment, mean ± SEM, sensitive to apoptosis, read-out: IC50 determined by MTT assays, MCF7
Give measured pIC50 for each item. Keep answers brief.
Note on units: pIC50 is unitless, being -log10 of a concentration expressed in mol/L.

Query string: Requested field: pIC50. Item: C=C[C@]1(C)C=C2C(=O)[C@@]3(O)OC(=O)[C@@]4(CCCC(C)(C)[C@H]34)[C@@]2(O)CC1 [Compound 1, sphaeropsidin A, reference compound]
Result string: 5.62

Query string: Param item = C=CC1(C)C=C2C(=O)C3(OC(=O)CCCCC(=O)O)OC(=O)C4(CCCC(C)(C)C34)C2(O)CC1 (stereo not shown) [Compound 5] ; retrieve measured pIC50.
Result string: 5.68

Query string: What does the record list as pIC50 for CCCCC=CC1(C)C=C2C(=O)C3(O)OC(=O)C4(CCCC(C)(C)C34)C2(O)CC1 (stereo not shown) [Compound 9] ?
Result string: 6.33

Query string: Entry CC1(C=CCCCCc2ccc3ccc4cccc5ccc2c3c45)C=C2C(=O)C3(O)OC(=O)C4(CCCC(C)(C)C34)C2(O)CC1 (stereo not shown) [Compound 23] : reported pIC50 = ?
Result string: 6.38

Query string: What value of pIC50 has been reported for the following compound? C=C[C@]1(C)C=C2[C@@H](O)[C@@]3(O)OC(=O)[C@@]4(CCCC(C)(C)[C@H]34)[C@@]2(O)CC1 [Compound 15, sphaeropsidin B, reference compound]
Result string: 4.07

Query string: Which pIC50 value belongs to C=CCCCc1ccc2ccc3cccc4ccc1c2c34 [Compound 14, reference compound] ?
Result string: 4.12

Query string: Which pIC50 is reported for this compound? CC1(C=Cc2ccccc2)C=C2C(=O)C3(O)OC(=O)C4(CCCC(C)(C)C34)C2(O)CC1 (stereo not shown) [Compound 12]
Result string: 5.51

* * *

For each record, write down the corresponding IC50.
Tested on: MCF7
TEST_SUMMARY: MTT colorimetric assay, MCF7
Format: cell-based
CONDITION_SUMMARY: Homo sapiens, 72 h treatment, mean ± SEM, sensitive to apoptosis, read-out: IC50 determined by MTT assays, MCF7

Query string: Quick check: IC50 of C#CCCCC(=O)OC12OC(=O)C3(CCCC(C)(C)C13)C1(O)CCC(C)(C=C)C=C1C2=O (stereo not shown) ?
Result string: 3720 nM

Query string: May I ask what IC50 has been recorded for CC1(C=CCCc2ccc3ccc4cccc5ccc2c3c45)C=C2C(=O)C3(O)OC(=O)C4(CCCC(C)(C)C34)C2(O)CC1 (stereo not shown) ?
Result string: 1200 nM

Query string: What IC50 value was documented for this compound, CC1(C=CCCCC(=O)O)C=C2C(=O)C3(O)OC(=O)C4(CCCC(C)(C)C34)C2(O)CC1 (stereo not shown) ?
Result string: > 100000 nM

Query string: Entry C=CC1(C)C=C2C(=O)C3(OC(=O)c4ccccc4)OC(=O)C4(CCCC(C)(C)C34)C2(O)CC1 (stereo not shown) : reported IC50 = ?
Result string: 1950 nM

Query string: Using the record for CC1(C=CCCOc2cccc3ccccc23)C=C2C(=O)C3(O)OC(=O)C4(CCCC(C)(C)C34)C2(O)CC1 (stereo not shown) , report its IC50.
Result string: 1300 nM

Query string: Which IC50 is listed for CC1(C=CCOCc2ccc3ccc4cccc5ccc2c3c45)C=C2C(=O)C3(O)OC(=O)C4(CCCC(C)(C)C34)C2(O)CC1 (stereo not shown) ?
Result string: 2710 nM

Query string: Sample CC1(C=CCCCc2ccc3ccc4cccc5ccc2c3c45)C=C2C(=O)C3(O)OC(=O)C4(CCCC(C)(C)C34)C2(O)CC1 (stereo not shown) — what was its IC50?
Result string: 300 nM

* * *

Test system: KB-C-1
TEST_SUMMARY: MTT assay, KB-C-1 (ABCB1-overexpressing)
Assay type: cell-based
CONDITION_SUMMARY: KBC-1, 72 h, read-out: IC50 determined by MTT assays, KB-C-1
Description: Cancer cell lines were obtained from either the European Collection of Cell Cultures (ECACC; Salisbury, UK) or the American Type Culture Collection (ATCC; Manassas, VA). The two glioma cell lines were the U373 (ECACC code 08061901) and Hs683 (ATCC HTB-138) cell lines. The carcinoma cell lines were the A549 non-small cell carcinoma cell line (ATCC code CCL 185) and the MCF-7 mammary breast carcinoma cell line (ATCC code HTB-22). […] SI Table 1: IC50 determined by MTT assays. […]
OUTCOME_MEASURE: pIC50
// scale note: pIC50 = -log10(conc_M); give the bare number

Query string: I have this molecule here, CC1(C=CCCCc2ccc3ccc4cccc5ccc2c3c45)C=C2C(O)C3(O)OC(=O)C4(CCCC(C)(C)C34)C2(O)CC1 (stereo not shown) , and I need its recorded pIC50.
Result string: 4.82

Query string: Quick check: pIC50 of CC1(C=CCCCc2ccc3ccc4cccc5ccc2c3c45)C=C2C(=O)C3(O)OC(=O)C4(CCCC(C)(C)C34)C2(O)CC1 (stereo not shown) ?
Result string: 5.49

Query string: Would you mind telling me what pIC50 value was observed for C=C[C@]1(C)C=C2C(=O)[C@@]3(O)OC(=O)[C@@]4(CCCC(C)(C)[C@H]34)[C@@]2(O)CC1 [Compound 1, sphaeropsidin A, reference compound] ?
Result string: 5.09

* * *

Please provide measured pIC50 for the entries that follow.
Test system: A549
TEST_SUMMARY: MTT colorimetric assay, A549
Type: cell-based
CONDITION_SUMMARY: Homo sapiens, 72 h treatment, mean ± SEM of six replicates of one experiment (1: 7, 13: 6 independent experiments), resistant to apoptosis, read-out: IC50 determined by MTT assays, A549
Reminder that pIC50 means the negative base-10 logarithm of the concentration expressed in mol/L.

Query string: Reported pIC50 for A549, given CC1(C=CCOCc2ccc3ccc4cccc5ccc2c3c45)C=C2C(=O)C3(O)OC(=O)C4(CCCC(C)(C)C34)C2(O)CC1 (stereo not shown) [Compound 25] ?
Result string: 5.46

Query string: Form field - read-out: pIC50; system: A549; submitted item: C=CC1(C)C=C2C(=O)C3(OC(=O)c4ccccc4)OC(=O)C4(CCCC(C)(C)C34)C2(O)CC1 (stereo not shown) [Compound 4]
Result string: 5.75

Query string: Which pIC50 is reported with A549 for this entry: CC1(C=CCCCCc2ccc3ccc4cccc5ccc2c3c45)C=C2C(=O)C3(O)OC(=O)C4(CCCC(C)(C)C34)C2(O)CC1 (stereo not shown) [Compound 23] ?
Result string: 6.22

Query string: Observed pIC50 on A549 for C=CCCCc1ccc2ccc3cccc4ccc1c2c34 [Compound 14, reference compound] , please.
Result string: 4.10

* * *

Tested on: RKO/p53ko
TEST_SUMMARY: MTT assay, RKO/p53ko
Type: cell-based
CONDITION_SUMMARY: 72 h, read-out: IC50 determined by MTT assays, RKO/p53ko
Text: Cancer cell lines were obtained from either the European Collection of Cell Cultures (ECACC; Salisbury, UK) or the American Type Culture Collection (ATCC; Manassas, VA). The two glioma cell lines were the U373 (ECACC code 08061901) and Hs683 (ATCC HTB-138) cell lines. The carcinoma cell lines were the A549 non-small cell carcinoma cell line (ATCC code CCL 185) and the MCF-7 mammary breast carcinoma cell line (ATCC code HTB-22). […] SI Table 1: IC50 determined by MTT assays. […]
OUTCOME_MEASURE: pIC50
Formally, pIC50 is defined as -log10 of the concentration c, with c in mol/L.

Query string: For the molecule C=C[C@]1(C)C=C2C(=O)[C@@]3(O)OC(=O)[C@@]4(CCCC(C)(C)[C@H]34)[C@@]2(O)CC1 [Compound 1, sphaeropsidin A, reference compound] , what pIC50 is on record?
Result string: 5.82

Query string: Endpoint output: pIC50 of CC1(C=CCCCc2ccc3ccc4cccc5ccc2c3c45)C=C2C(O)C3(O)OC(=O)C4(CCCC(C)(C)C34)C2(O)CC1 (stereo not drawn) . Value?
Result string: 5.16

Query string: If you can, please state the reported pIC50 value of CC1(C=CCCCc2ccc3ccc4cccc5ccc2c3c45)C=C2C(=O)C3(O)OC(=O)C4(CCCC(C)(C)C34)C2(O)CC1 (stereo not drawn) .
Result string: 5.82
